Reference source: ChEMBL document CHEMBL3885861

# Organism: Rattus norvegicus
# testDescription: Open TG-GATES - Regimen: Daily Repeat
# Assay type: toxicity, organism-based, Sprague-Dawley
# Set-up: regimen Daily Repeat, gender Male, age 6 weeks
# conditionSet: in vivo, po, 100 mg/kg, 72 h, route gavage, dose level Low, time 3 day
metric: TERMINAL_BW (g)
Reply with just the number (in g).

O=C(N[C@H](CO)[C@H](O)c1ccc([N+](=O)[O-])cc1)C(Cl)Cl	251
CCN1CCCC1CNC(=O)c1cc(S(N)(=O)=O)ccc1OC (centres undefined) [SULPIRIDE]	231.2
O=C(O)c1cccnc1	239.7

Return the recorded TERMINAL_BW value; entry: "CC(C)(S)[C@@H](N)C(=O)O"
236.4

* * *

# Organism: Rattus norvegicus
# testDescription: Open TG-GATES - Regimen: Daily Repeat
# Assay type: toxicity, organism-based, Sprague-Dawley
# Parameters: regimen Daily Repeat, gender Male, age 6 weeks
# conditionSet: in vivo, po, 100 mg/kg, […], tissue Blood, route gavage, dose level Low, time 28 day
compounds and their reported Neu
Reply with just the number (in %).

Solved entries (count: 3):
O=C(N[C@H](CO)[C@H](O)c1ccc([N+](=O)[O-])cc1)C(Cl)Cl [CHLORAMPHENICOL]	15.8
CCN1CCCC1CNC(=O)c1cc(S(N)(=O)=O)ccc1OC (centres undefined) [SULPIRIDE]	19.8
CC(C)(S)[C@@H](N)C(=O)O [PENICILLAMINE]	13

Below: the item to evaluate.
Return the recorded Neu value; entry: O=C(O)c1cccnc1 [NIACIN]
11.8

* * *

# Species on record: Rattus norvegicus
# testDescription: Open TG-GATES - Regimen: Daily Repeat
# Assay type: toxicity, organism-based, Sprague-Dawley
# Set-up: regimen Daily Repeat, gender Male, age 6 weeks
# conditionSet: in vivo, po, 0 mg/kg, 72 h, tissue Blood, route gavage, dose level Control, time 3 day
metric: Hb
Report the figure along with its unit, number first.

CCN1CCCC1CNC(=O)c1cc(S(N)(=O)=O)ccc1OC (stereo not given) [SULPIRIDE]	13.4 g/dL
CC(=O)Oc1cc(C(C)C)c(OCCN(C)C)cc1C [MOXISYLYTE]	13.7 g/dL
Oc1ncnc2[nH]ncc12 [ALLOPURINOL]	13.9 g/dL
CCSCC[C@H](N)C(=O)O [ETHIONINE]	13 g/dL

Below: the item to evaluate.
Return the recorded Hb value; entry: C[C@]12CCC(=O)C=C1CC[C@@H]1[C@@H]2CC[C@@]2(C)[C@H]1CC[C@]2(C)O [METHYLTESTOSTERONE]
13.4 g/dL

* * *

# Organism: Rattus norvegicus
# testDescription: Open TG-GATES - Regimen: Single
# Assay type: toxicity, organism-based, Sprague-Dawley
# Set-up: regimen Single, gender Male, age 6 weeks
# conditionSet: in vivo, po, 0 mg/kg, 3 h, tissue Plasma, route gavage, dose level Control
molecules and their reported TBIL
Reply with just the number (in mg/dL).

Solved entries (count: 3):
Oc1ncnc2[nH]ncc12 [ALLOPURINOL]	0.4
CCC(C)(C)C(=O)O[C@H]1C[C@@H](C)C=C2C=C[C@H](C)[C@H](CC[C@@H]3C[C@@H](O)CC(=O)O3)[C@H]21 [SIMVASTATIN]	0.4
O=C(O)c1cccnc1 [NIACIN]	0.002

Return the recorded TBIL value; entry: C#C[C@]1(O)CC[C@H]2[C@@H]3CCc4cc(O)ccc4[C@H]3CC[C@@]21C [ETHINYL ESTRADIOL]
0.044

* * *

compounds and their reported IP
# Species: Rattus norvegicus
# testDescription: Open TG-GATES - Regimen: Daily Repeat
# Type: toxicity, organism-based, Sprague-Dawley
# Design: regimen Daily Repeat, gender Male, age 6 weeks
# conditionSet: in vivo, po, 300 mg/kg, […], tissue Plasma, route gavage, dose level Middle, time 14 day
Reply with just the number (in mg/dL).

CC(C)(S)[C@@H](N)C(=O)O	7.2
CCN1CCCC1CNC(=O)c1cc(S(N)(=O)=O)ccc1OC (centres undefined) [SULPIRIDE]	7.8
O=C(O)c1cccnc1	6.8

Return the recorded IP value; entry: "O=C(N[C@H](CO)[C@H](O)c1ccc([N+](=O)[O-])cc1)C(Cl)Cl"
7.1

* * *

# Species on record: Rattus norvegicus
# testDescription: Open TG-GATES - Regimen: Daily Repeat
# Type: toxicity, organism-based, Sprague-Dawley
# Set-up: regimen Daily Repeat, gender Male, age 6 weeks
# conditionSet: in vivo, po, 1000 mg/kg, […], tissue Blood, route gavage, dose level High, time 7 day
compounds and their reported Eos

Solved entries (count: 3):
CC(C)(S)[C@@H](N)C(=O)O	1.4%
CCN1CCCC1CNC(=O)c1cc(S(N)(=O)=O)ccc1OC (centres undefined) [SULPIRIDE]	1.2%
O=C(O)c1cccnc1	0.8%

Below: the item to evaluate.
Return the recorded Eos value; entry: "O=C(N[C@H](CO)[C@H](O)c1ccc([N+](=O)[O-])cc1)C(Cl)Cl"
1%

* * *

compounds and their reported Na
# Organism: Rattus norvegicus
# testDescription: Open TG-GATES - Regimen: Single
# Assay type: toxicity, organism-based, Sprague-Dawley
# Design: regimen Single, gender Male, age 6 weeks
# conditionSet: in vivo, po, 0 mg/kg, 6 h, tissue Plasma, route gavage, dose level Control
Reply with just the number (in meq/L).

Oc1ncnc2[nH]ncc12	139
O=C(N[C@H](CO)[C@H](O)c1ccc([N+](=O)[O-])cc1)C(Cl)Cl	141.8
CCN1CCCC1CNC(=O)c1cc(S(N)(=O)=O)ccc1OC (stereo unspecified) [SULPIRIDE]	141.2

Return the recorded Na value; entry: "CCC(C)(C)C(=O)O[C@H]1C[C@@H](C)C=C2C=C[C@H](C)[C@H](CC[C@@H]3C[C@@H](O)CC(=O)O3)[C@H]21"
137.8

Return the recorded Na value; entry: "C#C[C@]1(O)CC[C@H]2[C@@H]3CCc4cc(O)ccc4[C@H]3CC[C@@]21C"
144.6

Return the recorded Na value; entry: "O=C(O)c1cccnc1"
140.2

Return the recorded Na value; entry: "CC(=O)Oc1cc(C(C)C)c(OCCN(C)C)cc1C"
141.4

Return the recorded Na value; entry: "C[C@]12CCC(=O)C=C1CC[C@@H]1[C@@H]2CC[C@@]2(C)[C@H]1CC[C@]2(C)O"
142.2

Return the recorded Na value; entry: "C[C@](N)(Cc1ccc(O)c(O)c1)C(=O)O"
143.4

Return the recorded Na value; entry: CC(=N)S [THIOACETAMIDE]
136.6

Return the recorded Na value; entry: CC(C)C(=O)Nc1ccc([N+](=O)[O-])c(C(F)(F)F)c1 [FLUTAMIDE]
139.8

* * *

# Organism: Rattus norvegicus
# testDescription: Open TG-GATES - Regimen: Daily Repeat
# Format: toxicity, organism-based, Sprague-Dawley
# Set-up: regimen Daily Repeat, gender Male, age 6 weeks
# conditionSet: in vivo, po, 300 mg/kg, 72 h, tissue Plasma, route gavage, dose level Middle, time 3 day
molecules and their reported Cl
Reply with just the number (in meq/L).

Solved entries (count: 3):
CC(C)(S)[C@@H](N)C(=O)O [PENICILLAMINE]	106.6
O=C(O)c1cccnc1 [NIACIN]	104
CCN1CCCC1CNC(=O)c1cc(S(N)(=O)=O)ccc1OC (centres undefined) [SULPIRIDE]	103.2

Below: the item to evaluate.
Return the recorded Cl value; entry: O=C(N[C@H](CO)[C@H](O)c1ccc([N+](=O)[O-])cc1)C(Cl)Cl [CHLORAMPHENICOL]
105.6

* * *

# Species on record: Rattus norvegicus
# testDescription: Open TG-GATES - Regimen: Single
# Type: toxicity, organism-based, Sprague-Dawley
# Parameters: regimen Single, gender Male, age 6 weeks
# conditionSet: in vivo, po, 0 mg/kg, 9 h, tissue Kidney, route gavage, dose level Control
compounds and their reported KIDNEY_TOTAL
Report the figure along with its unit, number first.

Solved entries (count: 4):
C[C@](N)(Cc1ccc(O)c(O)c1)C(=O)O	1.7 g
Nc1nc(N)c2nc(-c3ccccc3)c(N)nc2n1	1.9 g
C[C@]12CCC(=O)C=C1CC[C@@H]1[C@@H]2CC[C@@]2(C)[C@H]1CC[C@]2(C)O	1.8 g
C#C[C@]1(O)CC[C@H]2[C@@H]3CCc4cc(O)ccc4[C@H]3CC[C@@]21C	1.7 g

Below: the item to evaluate.
Return the recorded KIDNEY_TOTAL value; entry: CC(=N)S [THIOACETAMIDE]
1.8 g

* * *

compounds and their reported ALT
# Species: Rattus norvegicus
# testDescription: Open TG-GATES - Regimen: Daily Repeat
# Assay type: toxicity, organism-based, Sprague-Dawley
# Set-up: regimen Daily Repeat, gender Male, age 6 weeks
# conditionSet: in vivo, po, 0 mg/kg, […], tissue Plasma, route gavage, dose level Control, time 28 day
Reply with just the number (in IU/L).

Solved entries (count: 5):
CCc1oc2ccccc2c1C(=O)c1cc(I)c(O)c(I)c1	27
Nc1nc(N)c2nc(-c3ccccc3)c(N)nc2n1	40
CCC(C)(C)C(=O)O[C@H]1C[C@@H](C)C=C2C=C[C@H](C)[C@H](CC[C@@H]3C[C@@H](O)CC(=O)O3)[C@H]21	31.8
C[C@]12CCC(=O)C=C1CC[C@@H]1[C@@H]2CC[C@@]2(C)[C@H]1CC[C@]2(C)O	37.8
O=C(O)c1cccnc1	37.4

Below: the item to evaluate.
Return the recorded ALT value; entry: CC(C)C(=O)Nc1ccc([N+](=O)[O-])c(C(F)(F)F)c1 [FLUTAMIDE]
32
